Data origin, for the record: patent US20250376473A1

# System: HCT116-MTAP-KO cells (HCT116 MTAP null)
# Protocol notes: Proliferation inhibition of HCT116 MTAP-KO cells in vitro (CellTiter Glo)
# Assay type: cell-based
# Condition description: HCT116-MTAP null, 144 h, 6 days, 9 concentrations starting from 3 μM, read-out: Cell proliferation inhibition rate HCT116 MTAP null IC50 (nm)
Metric: IC50

// worked examples, IC50 included
[[record]]
compound = "CCN(Cc1nc(-c2cnn(C(F)(F)F)c2)cs1)C(=O)c1cc2c(cc1F)nc(N)c1cnc(C)n12"
assayed_target = "HCT116-MTAP-KO cells (HCT116 MTAP null)"
metric = "IC50"
endpoint_value = "100 to 1000 nM"

[[record]]
compound = "Cc1ncc2c(N)nc3cc(F)c(C(=O)N4[C@H](C)COC[C@@H]4c4cn5ccccc5n4)cc3n12"
assayed_target = "HCT116-MTAP-KO cells (HCT116 MTAP null)"
metric = "IC50"
endpoint_value = "100 to 1000 nM"

[[record]]
compound = "Cc1ncc2c(N)nc3cc(F)c(C(=O)N4C(c5ccc(C(F)F)cn5)COC[C@H]4C)cc3n12 (stereo partly shown)"
assayed_target = "HCT116-MTAP-KO cells (HCT116 MTAP null)"
metric = "IC50"
endpoint_value = "< 100 nM"

[[record]]
compound = "CCn1cc(N(Cc2ccc(OC3CC3)cn2)C(=O)c2cc3c(cc2F)nc(N)c2c(C)ncn23)c(C)n1"
assayed_target = "HCT116-MTAP-KO cells (HCT116 MTAP null)"
metric = "IC50"
endpoint_value = "< 100 nM"

[[record]]
compound = "COc1ccc(N(Cc2ccc(OC3CC3)cn2)C(=O)c2cc3c(cc2F)nc(N)c2cnc(C)n23)cn1"
assayed_target = "HCT116-MTAP-KO cells (HCT116 MTAP null)"
metric = "IC50"
endpoint_value = "< 100 nM"


Qu. Sample CCOc1ccc(CN(C(=O)c2cc3c(cc2F)nc(N)c2cnc(C)n23)c2cn(C)nc2C)nc1 — what was its IC50?
Ans. < 100 nM

Qu. Query (compound): Cc1nn(C)cc1N(Cc1ccc(C(F)(F)F)nn1)C(=O)c1cc2c(cc1F)nc(N)c1c(C)ncn12 ; field requested: IC50
Ans. < 100 nM
